Molecular target: Proteinase-activated receptor 1 (Homo sapiens) (UniProt P25116)
Sequence (P25116 whole entry): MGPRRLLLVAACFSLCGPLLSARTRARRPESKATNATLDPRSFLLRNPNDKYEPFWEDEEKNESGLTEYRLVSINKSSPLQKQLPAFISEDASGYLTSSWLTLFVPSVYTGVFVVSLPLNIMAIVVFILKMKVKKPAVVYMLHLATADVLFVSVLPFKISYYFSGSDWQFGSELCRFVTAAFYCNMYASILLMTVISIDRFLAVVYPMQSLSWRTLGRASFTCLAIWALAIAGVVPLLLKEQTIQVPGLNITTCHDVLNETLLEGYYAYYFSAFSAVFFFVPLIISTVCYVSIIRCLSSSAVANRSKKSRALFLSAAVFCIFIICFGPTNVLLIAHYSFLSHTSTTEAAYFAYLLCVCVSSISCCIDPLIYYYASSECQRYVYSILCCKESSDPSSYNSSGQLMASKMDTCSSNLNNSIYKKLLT
Assay: Antagonist activity at PAR1 in human platelet rich plasma assessed as inhibition of SFLLRN-induced platelet aggregation at 150 uM after 5 mins by aggregometric analysis relative to control
Activity calls are given as the source filed them. The rule behind the calls is not given here.
Pick one and only one: active, inactive

Worked examples, 4 compounds total:
CC(C)(C)OC(=O)NCCCC[C@H]1C(=O)N(Cc2ccccc2)C[C@H]([C@H](Cc2cn(C(=O)OC(C)(C)C)c3ccccc23)NC(=O)OC(C)(C)C)N1Cc1ccccc1 ... inactive
Cc1c(C)c(S(=O)(=O)/N=C(\N)NCCC[C@H]2C(=O)N(Cc3ccccc3)C[C@H]([C@H](Cc3ccccc3)NC(=O)OC(C)(C)C)N2CC(=O)OC(C)(C)C)c(C)c2c1OC(C)(C)C2 ... active
Cc1c(C)c(S(=O)(=O)/N=C(\N)NCCC[C@H]2C(=O)N(Cc3ccccc3)C[C@H]([C@H](Cc3ccccc3)NC(=O)NCc3ccccc3)N2Cc2ccccc2)c(C)c2c1OC(C)(C)C2 ... active
CC(C)(C)OC(=O)CN1[C@@H](CCCCNC(=O)OC(C)(C)C)C(=O)N(Cc2ccccc2)C[C@H]1[C@H](Cc1cn(C(=O)OC(C)(C)C)c2ccccc12)NC(=O)OC(C)(C)C ... inactive

Below: the item to evaluate.
Query: What classification did `Cc1c(C)c(S(=O)(=O)/N=C(/N)NCCC[C@H]2C(=O)N(Cc3ccccc3)C[C@@H]([C@H](Cc3cn(C(=O)OC(C)(C)C)c4ccccc34)NC(=O)OC(C)(C)C)N2Cc2ccccc2)c(C)c2c1OC(C)(C)C2` end up with in this test?
Reply: active
